# credit: patent US20050154042A1

Counter-ions that a name gives are not always drawn.
readout name: melting point

Known melting point results, listed for orientation:
CC(C)n1c(CC[C@@H](O)C[C@@H](O)CC(=O)[O-])c(-c2ccc(F)cc2)c(-c2ccccc2)c1C(=O)NCc1cccc(C#N)c1.[Na+] [Example 146]: 180 to 182 °C
COC(=O)c1ccc(NC(=O)c2c(-c3ccccc3)c(-c3ccc(F)cc3)c(CC[C@@H](O)C[C@@H](O)CC(=O)[O-])n2C(C)C)nc1.[Na+] [Example 118]: 188 to 190 °C (dec.)
COC(=O)C[C@H]1C[C@@H](CCc2c(-c3ccc(F)cc3)c(-c3ccc(F)cc3)cn2C(C)C)OC(C)(C)O1 [Example 24]: 55 to 57 °C
COC(=O)c1ccc(NC(=O)c2c(-c3ccccc3)c(-c3ccc(F)cc3)c(CC[C@@H](O)C[C@@H](O)CC(=O)[O-])n2C(C)C)cc1.[Na+] [Example 116]: 188 to 191 °C (dec.)

Challenge: Name the reported melting point value associated with the compound CC(C)n1c(CC[C@@H](O)C[C@@H](O)CC(=O)O)c(-c2ccc(F)cc2)c(-c2ccccc2)c1C(=O)NCc1ccc(F)cc1 (as salt: sodium) [Example 9]
Response given: 218 to 220 °C

Challenge: Name the reported melting point value associated with the compound CC(C)n1c(CCC(O)CC(O)CC(=O)[O-])c(-c2ccc(F)cc2)c(-c2ccccc2)c1C(=O)Nc1ccc(C(=O)[O-])cn1.[Na+].[Na+] (stereo not drawn) [Example 25]
Response given: > 250 °C

---

Structures can show the parent of a compound that is named as a salt.
The entries below come with measured melting point values attached.

Known melting point results, listed for orientation:
CC(C)n1c(CC[C@@H](O)C[C@@H](O)CC(=O)[O-])c(-c2ccc(F)cc2)c(-c2ccccc2)c1C(=O)Nc1cccc(C#N)c1.[Na+] [Example 142]: 197 to 199 °C
CCNC(=O)c1c(-c2ccccc2)c(-c2ccc(F)cc2)c(/C=C/[C@@H](O)C[C@@H](O)CC(=O)[O-])n1C(C)C.[Na+] [Example 159]: 226 to 228 °C
CC(C)n1c(/C=C/[C@@H](O)C[C@@H](O)CC(=O)[O-])c(-c2ccc(F)cc2)c(-c2ccccc2)c1C(=O)Nc1ccccc1.[Na+] [Example 2]: 239 to 241 °C
Cc1c[nH]c(CNC(=O)c2c(-c3ccccc3)c(-c3ccc(F)cc3)c(CC[C@@H](O)C[C@@H](O)CC(=O)O)n2C(C)C)n1 (as salt: sodium) [Example 95]: 213 to 215 °C (dec.)
CC(C)n1c(/C=C/[C@@H](O)C[C@@H](O)CC(=O)O)c(-c2ccc(F)cc2)c(-c2ccccc2)c1C(=O)NCc1ccc(F)cc1 (as salt: sodium) [Example 10]: 221 to 223 °C
COc1cccc(CNC(=O)c2c(-c3ccc(F)cc3)c(-c3ccc(F)cc3)c(CC[C@@H](O)C[C@@H](O)CC(=O)[O-])n2C(C)C)c1.[Na+] [Example 110]: 207 to 209 °C

Challenge: Name the reported melting point value associated with the molecule CC(C)n1c(CC[C@@H](O)C[C@@H](O)CC(=O)[O-])c(-c2ccc(F)cc2)c(-c2ccc(F)cc2)c1C(=O)NCc1cccc(S(=O)(=O)N(C)C)c1.[Na+] [Example 71]
Response given: 172 to 175 °C

Challenge: Name the reported melting point value associated with the molecule CC(C)n1c(/C=C/[C@@H](O)C[C@@H](O)CC(=O)O)c(-c2ccc(F)cc2)c(-c2ccc(F)cc2)c1C(=O)Nc1ccc(CC(N)=O)cc1 (as salt: sodium) [Example 14]
Response given: 220 to 222 °C

Challenge: Name the reported melting point value associated with the molecule CC(C)n1c(CC[C@@H](O)C[C@@H](O)CC(=O)[O-])c(-c2ccc(F)cc2)c(-c2ccc(F)cc2)c1C(=O)NCc1ccccn1.[Na+] [Example 69]
Response given: 200 to 205 °C

Challenge: Name the reported melting point value associated with the molecule CC(C)n1c(CC[C@@H](O)C[C@@H](O)CC(=O)[O-])c(-c2ccc(F)cc2)c(-c2ccccc2)c1C(=O)Nc1ccccn1.[Na+] [Example 119]
Response given: 226 to 228 °C (dec.)

Challenge: Name the reported melting point value associated with the molecule COC(=O)c1ccc(NC(=O)c2c(-c3ccc(F)cc3)c(-c3ccc(F)cc3)c(CC[C@@H](O)C[C@@H](O)CC(=O)[O-])n2C(C)C)nc1.[Na+] [Example 121]
Response given: 178 to 181 °C (dec.)
